Biological target: IRAK4 (Homo sapiens)
Construct: His (N); TEV cleavage site (N)
Test: IRAK4 Enzymatic Assay
Conditions: His-TEV-IRAK4 20 ng/well, ATP 2 μM, STK1-biotin peptide 300 nM, 3 hours at 30° C., FlashPlate radioactivity
pIC50: −log10 of the molar value. Where a name gives a salt, the structure may show the parent alone.
parameter: pIC50

{"columns": ["compound", "pIC50"],
 "data": [
  ["CCOC1CC(N2CCC(n3cc(-c4cnc(-c5cccc(-c6cnn(C)c6)c5)nc4)cn3)CC2)C1(C)C (stereo not shown) [Example 112]", "6.00 to 7.00"]
]}

Qu. Entry Cn1cc(-c2cccc(-c3ncc(-c4cnn([C@H]5CC[C@@H](N)CC5)c4)cn3)c2)cn1 [Example 156] : reported pIC50 = ?
Ans. 6.00 to 7.00

Qu. Which pIC50 reading was recorded for the compound Cn1cc(-c2cccc(-c3ncc(-c4cnn([C@H]5CC[C@H](NCCO)CC5)c4)cn3)c2)cn1 [Example 289] ?
Ans. > 7.00

Qu. Reported pIC50 for Cn1cc(-c2cccc(-c3ncc(-c4cnn(C5CCNCC5)c4)cn3)c2)cn1 [Example 1, hydrochloride] : what is it?
Ans. 6.00 to 7.00

Qu. Which pIC50 value belongs to Cn1cc(-c2cccc(-c3ncc(-c4cn(C5CCOCC5)nc4C(N)=O)cn3)c2)cn1 [Example 137] ?
Ans. 5.30 to 6.00

Qu. Look up pIC50 for this compound: Cn1cc(-c2cccc(-c3ncc(-c4cnn(CC5CCNC5)c4)cn3)c2)cn1 (stereo not shown) [Example 65, hydrochloride]
Ans. 6.00 to 7.00

Qu. State the recorded pIC50 for this entry: CN1CCN(C(=O)[C@H]2CC[C@H](n3cc(-c4cnc(-c5cccc(-c6cnn(C)c6)c5)nc4)cn3)CC2)CC1 [Example 160]
Ans. > 7.00

###

Molecular target: IRAK4 (Homo sapiens)
Construct: His (N); TEV cleavage site (N)
Experiment: IRAK4 Enzymatic Assay
Conditions: His-TEV-IRAK4 20 ng/well, ATP 2 μM, STK1-biotin peptide 300 nM, 3 hours at 30° C., FlashPlate radioactivity
Structures can show the parent of a compound that is named as a salt.
Entries and their IC50 values follow.

Qu. Need IC50 of COC1CCN(C(=O)Cn2cc(-c3cnc(-c4cccc(-c5cnn(C)c5)c4)nc3)cn2)C1 (stereo not drawn) [Example 90] , thanks.
Ans. 100 to 1000 nM

Qu. Bench note: what IC50 did Cn1cc(-c2cccc(-c3ncc(-c4cnn([C@H]5CC[C@H](OCC(C)(C)O)CC5)c4)cn3)c2)cn1 [Example 224] show?
Ans. < 100 nM

Qu. Could you tell me which IC50 is on file for Cn1cc(-c2cccc(-c3ncc(-c4cnn(CC(=O)N5CCCC(O)C5)c4)cn3)c2)cn1 (stereo not drawn) [Example 52] ?
Ans. 100 to 1000 nM

Qu. # lookup: IC50 of Cc1nn(C)cc1-c1cccc(-c2ncc(-c3cnn(C4CCNCC4)c3)cn2)c1 [Example 14, hydrochloride]
Ans. 1000 to 5000 nM

Qu. Name the recorded IC50 for CNC(=O)C1CC(n2cc(-c3cnc(-c4cccc(-c5cnn(C)c5)c4)nc3)cn2)C1 (stereo not drawn) [Example 157] .
Ans. 100 to 1000 nM

Qu. I am curious: what IC50 value has been reported for CC1COCCN1C(=O)Cn1cc(-c2cnc(-c3cccc(-c4cnn(C)c4)c3)nc2)cn1 (stereo not drawn) [Example 147] ?
Ans. 100 to 1000 nM

###

Target: IRAK4 (Homo sapiens, UniProt Q9NWZ3)
Construct: His (N); TEV cleavage site (N)
Sequence (Q9NWZ3 whole entry): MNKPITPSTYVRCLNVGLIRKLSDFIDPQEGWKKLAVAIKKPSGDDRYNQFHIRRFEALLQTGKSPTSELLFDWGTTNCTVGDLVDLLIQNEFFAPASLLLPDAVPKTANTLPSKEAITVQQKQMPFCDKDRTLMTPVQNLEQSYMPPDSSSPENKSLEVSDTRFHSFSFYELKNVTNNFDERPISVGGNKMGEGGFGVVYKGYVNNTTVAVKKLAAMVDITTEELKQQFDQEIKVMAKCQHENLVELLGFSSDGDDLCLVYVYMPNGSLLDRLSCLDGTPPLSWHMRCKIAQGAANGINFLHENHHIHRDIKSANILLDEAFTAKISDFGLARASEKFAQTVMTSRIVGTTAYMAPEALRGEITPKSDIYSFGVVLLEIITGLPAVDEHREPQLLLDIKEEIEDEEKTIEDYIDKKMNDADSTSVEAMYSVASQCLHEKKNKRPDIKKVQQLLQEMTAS
Experiment: IRAK4 Enzymatic Assay
Details: His-TEV-IRAK4 20 ng/well, ATP 2 μM, STK1-biotin peptide 300 nM, 3 hours at 30° C., FlashPlate radioactivity
Structures can show the parent of a compound that is named as a salt.
parameter: IC50

Please review the following examples before continuing.
{"columns": ["molecule", "IC50"],
 "data": [
  ["Cn1cc(-c2cccc(-c3ncc(-c4cnn(C5CCN(C6CCCOC6)CC5)c4)cn3)c2)cn1 (stereo not drawn)", "< 0.1 µM"],
  ["CCC(CO)NC(=O)Cn1cc(-c2cnc(-c3cccc(-c4cnn(C)c4)c3)nc2)cn1 (stereo not drawn)", "1 to 5 µM"],
  ["Cn1cc(-c2cccc(-c3ncc(-c4cnn([C@H]5CC[C@H](C(=O)NCC#N)CC5)c4)cn3)c2)cn1", "< 0.1 µM"],
  ["CC(C)[C@H](CO)NC(=O)[C@H]1CC[C@H](n2cc(-c3cnc(-c4cccc(-c5cnn(C)c5)c4)nc3)cn2)CC1", "0.1 to 1 µM"],
  ["CC(C)N(C)C(=O)[C@H]1CC[C@H](n2cc(-c3cnc(-c4cccc(-c5cnn(C)c5)c4)nc3)cn2)CC1", "< 0.1 µM"],
  ["COCCCn1cc(-c2cnc(-c3cccc(-c4cnn(C)c4)c3)nc2)cn1", "0.1 to 1 µM"]
]}

Qu. Recorded IC50 for Cn1cc(-c2cccc(-c3ncc(-c4cnn(C5CCCC(=O)C5)c4)cn3)c2)cn1 (stereo not drawn) with IRAK4 (Homo sapiens, UniProt Q9NWZ3), please?
Ans. 0.1 to 1 µM

Qu. Lab request: please report IC50 under test system IRAK4 (Homo sapiens, UniProt Q9NWZ3) for Cn1cc(-c2cccc(-c3ncc(-c4cnn(CC(=O)N5CCCCC5)c4)cn3)c2)cn1
Ans. 1 to 5 µM

Qu. Under IRAK4 (Homo sapiens, UniProt Q9NWZ3): IC50 value of CCNC(=O)[C@H]1CC[C@H](n2cc(-c3cnc(-c4cccc(-c5cnn(C)c5)c4)nc3)cn2)CC1 ?
Ans. < 0.1 µM

Qu. Lab request: please report IC50 under test system IRAK4 (Homo sapiens, UniProt Q9NWZ3) for CC(=O)N1CC[C@@H](n2cc(-c3cnc(-c4cccc(-c5cnn(C)c5)c4)nc3)cn2)C[C@H]1C
Ans. 0.1 to 1 µM

Qu. Record Cn1cc(-c2cccc(-c3ncc(-c4cnn(CCN5CCOCC5)c4)cn3)c2)cn1 : what is its IC50 with IRAK4 (Homo sapiens, UniProt Q9NWZ3)?
Ans. 0.1 to 1 µM

Qu. # query: IC50 | item CO[C@H]1CC[C@@H](n2cc(-c3cnc(-c4cccc(-c5cnn(C)c5)c4)nc3)cn2)CC1 | system: IRAK4 (Homo sapiens, UniProt Q9NWZ3)
Ans. < 0.1 µM

Qu. Kindly state the measured IC50 obtained for CNC(=O)[C@H]1CCC[C@@H](n2cc(-c3cnc(-c4cccc(-c5cnn(C)c5)c4)nc3)cn2)C1 (relative stereo) with IRAK4 (Homo sapiens, UniProt Q9NWZ3).
Ans. 0.1 to 1 µM

Qu. IC50 of Cn1cc(-c2cccc(-c3ncc(-c4cnn(C[C@H]5CCCN5)c4)cn3)c2)cn1 [Example 71, hydrochloride] on IRAK4 (Homo sapiens, UniProt Q9NWZ3)?
Ans. 1 to 5 µM

Qu. // lookup IC50 | system=IRAK4 (Homo sapiens, UniProt Q9NWZ3) | key= CN(CCO)C(=O)[C@H]1CC[C@H](n2cc(-c3cnc(-c4cccc(-c5cnn(C)c5)c4)nc3)cn2)CC1
Ans. < 0.1 µM
